- measurement_parameters: in acetonitrile, 323.15 K

>  <compound_structure_string>
CC(=O)OC(OC(C)=O)c1ccc([N+](=O)[O-])o1

>  <solubility (mole fraction)>
0.0215

$$$$

###

- measurement_parameters: in n-hexane, 288.15 K

>  <compound_structure_string>
CC(=O)OC(OC(C)=O)c1ccc([N+](=O)[O-])o1

>  <solubility (mole fraction)>
0.0458

$$$$

###

- measurement_parameters: in n-hexane, 303.15 K

>  <compound_structure_string>
CC(=O)OC(OC(C)=O)c1ccc([N+](=O)[O-])o1

>  <solubility (mole fraction)>
0.0883

$$$$

###

- measurement_parameters: in ethyl acetate, 298.15 K
observable: solubility (mole fraction)

>  <compound_structure_string>
CC(=O)OC(OC(C)=O)c1ccc([N+](=O)[O-])o1

>  <observable>
solubility (mole fraction)

>  <observed_result>
0.0101

$$$$

###

- measurement_parameters: in THF, 313.15 K

>  <compound_structure_string>
CC(=O)OC(OC(C)=O)c1ccc([N+](=O)[O-])o1

>  <solubility (mole fraction)>
0.385

$$$$

###

- measurement_parameters: in toluene, 293.15 K

>  <compound_structure_string>
CC(=O)OC(OC(C)=O)c1ccc([N+](=O)[O-])o1

>  <solubility (mole fraction)>
0.192

$$$$

###

- measurement_parameters: in 1,4-dioxane, 278.15 K

>  <compound_structure_string>
CC(=O)OC(OC(C)=O)c1ccc([N+](=O)[O-])o1

>  <solubility (mole fraction)>
0.0821

$$$$

###

- measurement_parameters: in n-hexane, 308.15 K

>  <compound_structure_string>
CC(=O)OC(OC(C)=O)c1ccc([N+](=O)[O-])o1

>  <solubility (mole fraction)>
0.109

$$$$

###

- measurement_parameters: in DMF, 313.15 K
observable: solubility (mole fraction)

>  <compound_structure_string>
CC(=O)OC(OC(C)=O)c1ccc([N+](=O)[O-])o1

>  <observed_result>
0.296

$$$$

###

- measurement_parameters: in methanol, 323.15 K
observable: solubility (mole fraction)

>  <compound_structure_string>
CC(=O)OC(OC(C)=O)c1ccc([N+](=O)[O-])o1

>  <observable>
solubility (mole fraction)

>  <observed_result>
0.173

$$$$

###

- measurement_parameters: in acetone, 318.15 K

>  <compound_structure_string>
CC(=O)OC(OC(C)=O)c1ccc([N+](=O)[O-])o1

>  <solubility (mole fraction)>
0.33

$$$$

###

- measurement_parameters: in toluene, 303.15 K

>  <compound_structure_string>
CC(=O)OC(OC(C)=O)c1ccc([N+](=O)[O-])o1

>  <solubility (mole fraction)>
0.239

$$$$

###

- measurement_parameters: in acetone, 303.15 K

>  <compound_structure_string>
CC(=O)OC(OC(C)=O)c1ccc([N+](=O)[O-])o1

>  <solubility (mole fraction)>
0.214

$$$$

###

- measurement_parameters: in DMF, 288.15 K

>  <compound_structure_string>
CC(=O)OC(OC(C)=O)c1ccc([N+](=O)[O-])o1

>  <solubility (mole fraction)>
0.192

$$$$

###

- measurement_parameters: in 1,4-dioxane, 308.15 K

>  <compound_structure_string>
CC(=O)OC(OC(C)=O)c1ccc([N+](=O)[O-])o1

>  <solubility (mole fraction)>
0.188

$$$$
